B1: KCNAB2 (parent)
chain: IPPYSRASLKGYQWLKDKILSEEG

Variants of: B1
Assay: protein stability index of a GFP-peptide fusion (GPS, HEK-293T) (PSI 1-6); higher = more stable;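 also: lentivirally expressed fusions sorted by FACS into six bins by GFP to DsRed ratio, PSI derived from sequencing read proportions per bin multiplied by bin number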
Conditions: c terminus: a fixed tail appended
observed-property: protein stability index
// print number alone

protein stability index lookup needed for `I1V` , thanks.
2.77

protein stability index lookup needed for `Y4V` , thanks.
2.49

protein stability index lookup needed for `R6M` , thanks.
1.95

protein stability index lookup needed for `G24E` , thanks.
3.1

protein stability index lookup needed for `K18I` , thanks.
1.71

Others:
protein stability index lookup needed for `D17E` , thanks.
1.26

protein stability index lookup needed for `S21N` , thanks.
2.02
